molecular target: Protein phosphatase 1D (Homo sapiens) (UniProt O15297); assay: RapidFire Mass Spectrometry qHTS Assay for Modulators of WT P53-Induced Phosphatase 1 (WIP1) (AID 1347424); conditions: WIP1 dephosphorylation of phosphopeptide, RapidFire MS; series mostly up to 63 µM;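 also: amount of dephosphorylated VEPPL-S-QETFS peptide product formed by WIP1; plate controls were DMSO wells for no effect and GSK830371 inhibitor control at 10 µM for full effect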
Sequence (O15297 whole entry, looked up): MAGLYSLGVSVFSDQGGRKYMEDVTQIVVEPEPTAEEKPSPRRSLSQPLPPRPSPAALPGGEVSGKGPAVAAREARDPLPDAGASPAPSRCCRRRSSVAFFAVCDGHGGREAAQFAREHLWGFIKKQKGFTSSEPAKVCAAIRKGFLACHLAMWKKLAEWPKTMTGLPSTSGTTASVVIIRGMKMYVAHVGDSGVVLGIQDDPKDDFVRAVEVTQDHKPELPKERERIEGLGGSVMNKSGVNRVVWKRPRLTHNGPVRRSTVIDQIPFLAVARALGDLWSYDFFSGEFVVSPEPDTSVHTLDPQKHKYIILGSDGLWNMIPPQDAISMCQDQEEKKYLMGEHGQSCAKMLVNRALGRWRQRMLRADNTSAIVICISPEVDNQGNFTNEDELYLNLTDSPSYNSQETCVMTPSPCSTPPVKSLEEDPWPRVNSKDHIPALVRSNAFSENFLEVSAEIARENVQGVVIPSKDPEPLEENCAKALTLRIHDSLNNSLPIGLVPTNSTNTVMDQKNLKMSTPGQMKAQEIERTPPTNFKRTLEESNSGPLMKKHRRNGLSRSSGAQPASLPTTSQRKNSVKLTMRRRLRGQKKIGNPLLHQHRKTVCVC
Inconclusive results are not listed. Activity calls are given as the source filed them. Calls follow the shape of the dose curve; as a rule, active = well fitted inhibition curve with a large enough effect; inconclusive = small, poorly fitted or top-dose-only effect; inactive = no such curve, though single readings can be large or run the other way.
Quantity: activity change, negative = inhibition

Example cases with answers are listed next.
In [3]: df
Out[3]:
                                   compound                               system_name  obs_value
0  Cc1ccc(C(=O)Oc2ccc(C(O)CNC(C)(C)C)cc2OC(=O)c2ccc(C)cc2)cc1 (stereo not drawn)  Protein phosphatase 1D (Homo sapiens) (UniProt O15297)   inactive
1  CCCc1c2oc(C(=O)O)cc(=O)c2cc2c(=O)cc(C(=O)O)n(CC)c12  Protein phosphatase 1D (Homo sapiens) (UniProt O15297)   inactive
2  Cc1ccc(C(C)OC(=O)C2(C)CCC(C(=O)O)C2(C)C)cc1 (stereo not drawn)  Protein phosphatase 1D (Homo sapiens) (UniProt O15297)   inactive
3  CN1CCC(Nc2ncc3ncnc(Nc4ccc(F)c(Cl)c4)c3n2)CC1  Protein phosphatase 1D (Homo sapiens) (UniProt O15297)   inactive
4                                Cc1sccc1Br  Protein phosphatase 1D (Homo sapiens) (UniProt O15297)   inactive
5     CC(=O)Nc1ccc(S(=O)(=O)Nc2cc(C)on2)cc1  Protein phosphatase 1D (Homo sapiens) (UniProt O15297)   inactive

The value of activity change, negative = inhibition recorded for CC(C)C[C@@H]1[C@H](c2ccccc2)OC(=O)N1CCCN1CCCCCC1 when tested on Protein phosphatase 1D (Homo sapiens) (UniProt O15297) reads inactive

Hey, Protein phosphatase 1D (Homo sapiens) (UniProt O15297) data for C[C@@H](C1=C(CCN(C)C)Cc2ccccc21)c1ccccn1 : activity change, negative = inhibition came out at inactive

So the reported activity change, negative = inhibition for CC(NN)c1ccccc1 (stereo not drawn) , on Protein phosphatase 1D (Homo sapiens) (UniProt O15297), turned out to be inactive

Reported Protein phosphatase 1D (Homo sapiens) (UniProt O15297) activity change, negative = inhibition for item CC(C)(C)C(O)/C=C/c1ccc2c(c1)OCO2 (stereo not drawn) was inactive

---

assay: Drug repurposing screens with cells derived from glioblastoma tumor samples (AID 1345199); settings: GBM patient neurospheres viability, ATP luminescence, 48 h; at 45.9 µM (top of the series); tumour line B; also: % is scaled to controls: 0 for no effect and ±100 for the full control effect; nearly all actives have a fitted effect of over 40% in size
Results filed as inconclusive are left out. Calls of active or inactive are those of the source. Calls come from the whole dose curve; as a rule, active = well fitted inhibition curve with a large enough effect; inconclusive = small, poorly fitted or top-dose-only effect; inactive = flat fitted curve, though single readings scatter.
Attribute: activity, negative = cell killing

Check out these entries, answers already filled in.
>>> print(df.to_string())
                                   molecule          obs_value
0  COc1cc(C(=O)OC(COCCC(C)C)CN2CCOCC2)cc(OC)c1OC (stereo not given)  -6.94% (inactive)
1  CC(C(=O)O)c1ccc(/C=C2\CCCCC2=O)cc1 (stereo not given)  -2.39% (inactive)
2  O=C(COCCOCCOCC(=O)Nc1c(I)cc(I)c(C(=O)O)c1I)Nc1c(I)cc(I)c(C(=O)O)c1I  -4.03% (inactive)
3       O=C(CO)[C@@H](O)[C@H](O)[C@@H](O)CO   4.08% (inactive)

Measured activity, negative = cell killing of CCCCC/C=C\C/C=C\CCCCCCCC(=O)NC(C)c1ccccc1 (stereo not given) : -3.69% (inactive)

Looking up COC(=O)C1=C(C)NC(COC(N)=O)=C(C(=O)OC(C)C)C1c1cccc(Cl)c1Cl (stereo not given) , I see its activity, negative = cell killing listed as 0.976% (inactive)

So for O=C(CCCCC(=O)Nc1c(I)cc(I)c(C(=O)O)c1I)Nc1c(I)cc(I)c(C(=O)O)c1I , the logged activity, negative = cell killing turned out to be 0.519% (inactive)

Reported activity, negative = cell killing for C[C@@]12CCC[C@H]1[C@@H]1CC[C@H]3C[C@@H](O)CC[C@]3(C)[C@H]1CC2 was -21.2% (inactive)

Just so you know, measured activity, negative = cell killing for O=C(NN1CCCC1)NS(=O)(=O)c1ccc(Cl)cc1 came out at 1.6% (inactive)

activity, negative = cell killing reported for this molecule Nc1ncnc2nc[nH]c12 : 11.8% (inactive)
